Assay Comment: Phase I clinical trial: plasma pharmacokinetics
Format: in vivo, human
Experimental Conditions: human, plasma, oral, patient 22, With Milk
Reported Property: Tmax
Reply with the number, then its unit.

Bench note: what Tmax did CC(=O)c1cc2c(o1)C(=O)c1ccccc1C2=O [Compound 1] show?
8 h

====

Assay Comment: Phase I clinical trial: plasma pharmacokinetics
Format: in vivo, human
Experimental Conditions: human, plasma, oral, 600 mg, total daily dose 600 mg, BID dosing; read-out: AUC0-24
Reported Property: AUC(0-t) (µM·h)
Your answer is read as µM·h, so omit the unit and give the number.

I am curious: what AUC(0-t) value has been reported for CC(=O)c1cc2c(o1)C(=O)c1ccccc1C2=O [Compound 1] ?
27.3
